Target: UniProt P40145
Sequence (P40145 whole entry): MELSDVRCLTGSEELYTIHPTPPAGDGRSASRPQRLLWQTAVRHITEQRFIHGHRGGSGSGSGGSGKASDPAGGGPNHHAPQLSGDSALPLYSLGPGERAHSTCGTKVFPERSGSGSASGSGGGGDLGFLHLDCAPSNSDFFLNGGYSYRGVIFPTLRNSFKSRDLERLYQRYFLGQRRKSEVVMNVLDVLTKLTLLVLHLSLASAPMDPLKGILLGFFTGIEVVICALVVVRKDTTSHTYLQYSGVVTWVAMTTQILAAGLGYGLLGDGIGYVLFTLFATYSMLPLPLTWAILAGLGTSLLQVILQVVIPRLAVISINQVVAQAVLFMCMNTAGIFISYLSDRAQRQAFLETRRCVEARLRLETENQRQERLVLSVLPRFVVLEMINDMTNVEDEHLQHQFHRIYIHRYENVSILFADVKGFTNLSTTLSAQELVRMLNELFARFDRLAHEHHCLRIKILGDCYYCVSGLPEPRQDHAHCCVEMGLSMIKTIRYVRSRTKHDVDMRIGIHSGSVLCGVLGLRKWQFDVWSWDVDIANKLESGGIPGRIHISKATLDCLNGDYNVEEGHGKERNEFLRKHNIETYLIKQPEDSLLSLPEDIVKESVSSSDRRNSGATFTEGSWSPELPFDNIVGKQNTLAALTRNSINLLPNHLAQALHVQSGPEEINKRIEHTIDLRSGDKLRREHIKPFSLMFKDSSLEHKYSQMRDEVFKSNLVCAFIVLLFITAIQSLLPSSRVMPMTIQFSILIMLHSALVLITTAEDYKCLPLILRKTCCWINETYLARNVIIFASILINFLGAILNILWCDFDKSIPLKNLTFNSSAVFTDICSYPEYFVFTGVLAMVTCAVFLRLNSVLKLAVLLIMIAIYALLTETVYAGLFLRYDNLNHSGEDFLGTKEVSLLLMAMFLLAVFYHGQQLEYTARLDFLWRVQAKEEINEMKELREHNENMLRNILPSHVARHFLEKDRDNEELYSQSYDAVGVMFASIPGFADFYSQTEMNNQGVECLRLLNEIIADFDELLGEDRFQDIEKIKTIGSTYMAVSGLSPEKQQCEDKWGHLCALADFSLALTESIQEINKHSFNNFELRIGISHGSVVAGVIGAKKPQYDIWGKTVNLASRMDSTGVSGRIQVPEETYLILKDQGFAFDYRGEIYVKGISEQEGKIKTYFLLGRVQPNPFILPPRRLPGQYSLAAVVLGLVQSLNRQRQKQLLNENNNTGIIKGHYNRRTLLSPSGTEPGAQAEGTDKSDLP
Assay: Agonist activity at recombinant human AC8 expressed in human HEK293 cells assessed as fold increase in cAMP level by LANCE Ultra cAMP Detection kit method
measurement type: pEC50
Notebook: values listed as pEC50 are -log10 of the concentration (mol/L).

// fetch pEC50 given entry C=C[C@@]1(C)CC(=O)[C@]2(O)[C@@]3(C)[C@@H](O)CCC(C)(C)[C@@H]3[C@H](O)[C@H](OC(C)=O)[C@@]2(C)O1
7.03

// fetch pEC50 given entry CCOC(=O)C1(Cc2ccc(Cl)cc2Cl)C(=O)Nc2ccccc21 (configuration not stated)
6.98
